Target: Chromo domain-containing protein 1 (Saccharomyces cerevisiae (strain ATCC 204508 / S288c) (Baker's yeast))
Test: ScCHD-1 Enzyme Inhibition Assay
Assay type: functional
Design: scale not given: in the data most compounds retested in dose-response had high values
Conditions: 30 µM
// reported Percent Effect per item
Report only the number, with the unit % understood.

# annotated cases, reported Percent Effect shown
> print(dat)
                                   molecule  observed.value
1  COc1ccc(CN(Cc2cncn2C)CC2CCCO2)cc1OC (configuration not stated)             -15
2  Cc1nc(C)c(CC(=O)N2C[C@H]3CC[C@@H]2CN(C(=O)N(C)C)C3)c(=O)[nH]1           -2.75
3  CC(NC(=O)N(C)Cc1ccsc1)c1ccc2c(c1)OCO2 (configuration not stated)           -8.55
4  O=C(N1CCOCC1)[C@@]12CCO[C@@H]1CCN(Cc1ccccc1F)C2           -3.56

INPUT: Item under review: CN(C)C(=O)[C@H]1C[C@@H]2CCN(C3CCOCC3)C[C@H]2O1 . Reported Percent Effect?
OUTPUT: -4.08

INPUT: Item under review: Cc1cc(C)n(CC2CCCN2C(=O)CCc2cscn2)n1 (configuration not stated) . Reported Percent Effect?
OUTPUT: 1.57

INPUT: Item under review: O=C(NCC1CC1)C1=NOC2(CCN(Cc3ccc4c(c3)OCO4)C2)C1 (configuration not stated) . Reported Percent Effect?
OUTPUT: -6.02

INPUT: Item under review: Cc1nc(C)n(CC2CCCN(c3ncnc4[nH]ccc34)C2)n1 (configuration not stated) . Reported Percent Effect?
OUTPUT: -4.67

INPUT: Item under review: CCc1nc(CCNC(=O)Nc2cc(C(N)=O)sc2C)cs1 . Reported Percent Effect?
OUTPUT: 4.38

INPUT: Item under review: CCCNC(=O)N1CCC(Oc2cc(C)ccc2F)(C(=O)O)CC1 . Reported Percent Effect?
OUTPUT: -1.57

INPUT: Item under review: CN(Cc1cccc(F)c1)S(=O)(=O)N1CCOCC1 . Reported Percent Effect?
OUTPUT: -6.29

INPUT: Item under review: COc1ccc2c(c1)CN(Cc1nc3c(cnn3C)c(=O)[nH]1)CC2 . Reported Percent Effect?
OUTPUT: -7.47

INPUT: Item under review: Cn1nccc1C(=O)N1CCOC(Cc2cccc(C(F)(F)F)c2)C1 (configuration not stated) . Reported Percent Effect?
OUTPUT: 2.23
